Kd for assorted binders
# assayed system: T1, MDM2 (1–138) (UniProt Q00987 1-138)
# T1 construct: MDM2, residues 1-138; the methods may stand in the ESI; also called Mouse double minute 2 homolog
# T1 sequence (Q00987 1-138): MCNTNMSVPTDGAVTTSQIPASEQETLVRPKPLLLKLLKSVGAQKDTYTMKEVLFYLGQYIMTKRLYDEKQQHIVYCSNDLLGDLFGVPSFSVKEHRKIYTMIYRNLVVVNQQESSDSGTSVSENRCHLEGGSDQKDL
# run description: fluorescence polarisation; direct binding; 10 nM FITC-labelled peptide incubated with varying concentrations of protein (10 μM to 9 pM), FP read after 3 h; n = 3
# details: both partners purified
Starred links: 1 amine or outer side, 2 acyl side, 3 side chain; linkers in the order of their positions; H or OH if unused. Positions of bridges follow the written chain, without caps; N, C: chain ends. Non-standard residues stand in square brackets, D forms with d. *: point of attachment. FITC = O=C1OC2(c3ccc(O)cc3Oc3cc(O)ccc32)c2ccc(NC(=S)*)cc21; S7 = C[C@@](CCCCCC=[*:3])(N[*:1])C(=O)[*:2]; Cba = N[C@@H](CC1CCC1)C(=O)O; Ahx = NCCCCCC(=O)O
Kindly answer with a numeric value in nM, unit omitted.

INSERT INTO results (binder, assay_readout, numeric_readout) VALUES
  ('{FITC-Ahx}-LTF[S7]EYWAQ[Cba][S7]SAA-NH2 (bridge 4-11; not fully specified (bridges)) [4FITC]', 'Kd', 1.39);

Query binder follows.
Any idea what Kd was measured for {FITC-Ahx}-LTA[S7]EYWAQ[Cba][S7]SAA-NH2 (staple 4-11) [5FITC] ?
3680
